Molecular target: recombinant MCL1 (human) (UniProt Q07820)
Sequence (Q07820 whole entry): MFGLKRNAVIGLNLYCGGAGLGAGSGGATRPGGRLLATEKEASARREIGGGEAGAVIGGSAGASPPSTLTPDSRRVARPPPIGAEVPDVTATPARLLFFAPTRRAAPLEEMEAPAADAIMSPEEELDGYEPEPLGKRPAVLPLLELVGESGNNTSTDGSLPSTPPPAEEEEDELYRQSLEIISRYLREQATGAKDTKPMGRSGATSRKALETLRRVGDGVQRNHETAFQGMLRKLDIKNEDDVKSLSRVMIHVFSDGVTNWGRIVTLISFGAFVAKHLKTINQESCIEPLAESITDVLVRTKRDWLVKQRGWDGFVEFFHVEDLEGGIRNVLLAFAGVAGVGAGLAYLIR
Test: fluorescence polarisation; direct FPA: recombinant MCL1 with FITC-peptide, 30 min, 1× PBS pH 7.4; limit of detection of the probe 5 nM
pKd: −log10 of the molar value. *: point of attachment. FITC = O=C1OC2(c3ccc(O)cc3Oc3cc(O)ccc32)c2ccc(NC(=S)*)cc21; Ahx = NCCCCCC(=O)O
measured-property: pKd

pKd in this record for {FITC-Ahx}-GQVGRQLAIIGDDINRRYD-NH2 [FITC-AHX-BAK peptide] : > 8.30

The origin of these recorded values is paper PMC7641127.
